Reported values of CC50 at 72 h for individual entries
experiment: Cytotoxicity against THP-1 macrophages (MTT); type: cell-based; details: human, PMA-differentiated THP-1 macrophages, read-out: Toxicity CC50 ± SD Or CC50 Interval Estimation
Property label: CC50 at 72 h

{"Molecule": "C[N+](C)(C)CCOP(=O)([O-])OCCCCCn1cc(CCCCCCCCN)nn1", "Property label": "CC50 at 72 h", "Result": "> 100 µM"}
{"Molecule": "C[N+](C)(C)CCCOP(=O)([O-])OCCCCCCCCCCCn1cc(CC2CCCCC2)nn1", "Property label": "CC50 at 72 h", "Result": "> 10 µM"}
{"Molecule": "C[N+](C)(C)CCOP(=O)([O-])OCCCCCCCCCCCn1cc(CCCCCCCCC(=O)OCc2ccccc2)nn1", "Property label": "CC50 at 72 h", "Result": "> 100 µM"}
{"Molecule": "CCCCCCCCCCc1cc(CCCCCCCCCCOP(=O)([O-])OCC[N+](C)(C)C)no1", "Property label": "CC50 at 72 h", "Result": "12.5 to 25 µM"}
{"Molecule": "C[N+](C)(C)CCOP(=O)([O-])OCCCCCCCCCCCn1cc(CCCCCCCCN)nn1", "Property label": "CC50 at 72 h", "Result": "> 100 µM"}
{"Molecule": "CCCCCCCCCCCCCCCCOP(=O)([O-])OCC[N+](C)(C)C [Miltefosine, hexadecylphosphocholine, reference compound]", "Property label": "CC50 at 72 h", "Result": "15.9 µM"}
{"Molecule": "CCCCCc1cn(CCCCCCCCCCCOP(=O)([O-])OCC[N+](C)(C)C)nn1", "Property label": "CC50 at 72 h", "Result": "> 100 µM"}
{"Molecule": "C[N+](C)(C)CCOP(=O)([O-])OCCCCCCCCCCCn1cc(CC2CCCCC2)nn1", "Property label": "CC50 at 72 h", "Result": "> 100 µM"}

---

system: A549 cells; assay: Cytotoxicity assay A549 (CellTiter-Glo); assay type: cell-based, human; conditions: compounds 10 μM; miltefosine 10 μM or 1 μM
Let's look at some compounds and their measured % cell growth ± SD at 10 μΜ A549.
Property label: % cell growth ± SD at 10 μΜ A549 (%)

{"Compound": "CCCCCCCCc1noc(CCCCCOP(=O)([O-])OCC[N+](C)(C)C)n1 [Compound 53]", "U": "%", "Number": 87.74}
{"Compound": "C[N+](C)(C)CCOP(=O)([O-])OCCCCCCCCCCCn1cc(CC2CCCCC2)nn1 [Compound 29]", "U": "%", "Number": 120.63}
{"Compound": "C[N+](C)(C)CCCOP(=O)([O-])OCCCCCCCCCCCn1cc(CC2CCCCC2)nn1 [Compound 33]", "U": "%", "Number": 114.14}
{"Compound": "C[N+](C)(C)CCOP(=O)([O-])OCCCCCn1cc(CCCCCCCCNC(=O)OCc2ccccc2)nn1 [Compound 31]", "U": "%", "Number": 108.64}
{"Compound": "C[N+](C)(C)CCOP(=O)([O-])OCCCCCCCCCCCn1cc(CC2CCCC2)nn1 [Compound 28]", "U": "%", "Number": 121.51}
{"Compound": "CCCCCCCCCCCc1nnc(CCCCCCCCCCOP(=O)([O-])OCC[N+](C)(C)C)o1 [Compound 66]", "U": "%", "Number": 90.83}
{"Compound": "CCCCCc1cn(CCCCCCCCCCCOP(=O)([O-])OCC[N+](C)(C)C)nn1 [Compound 25]", "U": "%", "Number": 114.88}
{"Compound": "CCCCCCCCc1noc(CCCCCCCCCCOP(=O)([O-])OCC[N+](C)(C)C)n1 [Compound 54]", "U": "%", "Number": 85.82}
{"Compound": "CCCCCCCCCCc1cc(CCCCCCCCCCOP(=O)([O-])OCC[N+](C)(C)C)no1 [Compound 41]", "U": "%", "Number": 85.15}
{"Compound": "C[N+](C)(C)CCOP(=O)([O-])OCCCCCn1cc(CCCCCCCCN)nn1 [Compound 35]", "U": "%", "Number": 100.96}
{"Compound": "CCCCCCCCCCCCCCCCOP(=O)([O-])OCC[N+](C)(C)C [Miltefosine, hexadecylphosphocholine, reference compound]", "U": "%", "Number": 95.80}
{"Compound": "CCCCCCCc1nnc(CCCCCCCCCCOP(=O)([O-])OCC[N+](C)(C)C)o1 [Compound 65]", "U": "%", "Number": 90.48}

---

biological target: CYP2C9 (Homo sapiens, UniProt P11712); construct: purchased Corning Inc; host or cells: baculovirus-infected insect cells; test: Cytochrome P450 inhibition assay (P450-Glo) CYP2C9; type: in vitro ADME; settings: compounds 10 μM; miltefosine 10 μM or 1 μM
Sequence (P11712 whole entry): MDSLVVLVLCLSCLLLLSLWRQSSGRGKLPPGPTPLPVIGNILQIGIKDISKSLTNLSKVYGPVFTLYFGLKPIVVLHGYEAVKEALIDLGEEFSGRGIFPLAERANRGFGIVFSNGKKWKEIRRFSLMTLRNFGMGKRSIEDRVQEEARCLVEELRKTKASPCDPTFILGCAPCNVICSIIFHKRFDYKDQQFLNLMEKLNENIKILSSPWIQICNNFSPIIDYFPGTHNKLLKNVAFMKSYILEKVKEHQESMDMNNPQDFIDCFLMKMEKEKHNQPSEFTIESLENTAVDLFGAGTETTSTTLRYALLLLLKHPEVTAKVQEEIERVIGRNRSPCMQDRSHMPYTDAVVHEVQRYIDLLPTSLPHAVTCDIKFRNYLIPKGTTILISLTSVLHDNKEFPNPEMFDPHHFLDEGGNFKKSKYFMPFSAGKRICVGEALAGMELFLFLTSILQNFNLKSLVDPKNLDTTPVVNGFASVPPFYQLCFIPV
Please use Y whenever % inhibition ± SD at 10 μΜ CYP2C9 is not below 9%, and N whenever it is.

{"Substance smiles": "C[N+](C)(C)CCOP(=O)([O-])OCCCCCCCCCCCn1cc(CCCCCCCCC(=O)O)nn1", "Class assignment": "Y"}
{"Substance smiles": "C[N+](C)(C)CCCOP(=O)([O-])OCCCCCCCCCCCn1cc(CC2CCCCC2)nn1", "Class assignment": "Y"}
{"Substance smiles": "CCCCCCCCc1noc(CCCCCOP(=O)([O-])OCC[N+](C)(C)C)n1", "Class assignment": "N"}
{"Substance smiles": "CCCCCCCc1nnc(CCCCCCCCCCOP(=O)([O-])OCC[N+](C)(C)C)o1", "Class assignment": "Y"}
{"Substance smiles": "C[N+](C)(C)CCOP(=O)([O-])OCCCCCn1cc(CCCCCCCCN)nn1", "Class assignment": "N"}

---

// reported % inhibition ± SD at 10 μΜ CYP2C19 for each item listed
biological target: CYP2C19 (Homo sapiens, UniProt P33261); construct: purchased Corning Inc; host or cells: baculovirus-infected insect cells; experiment: Cytochrome P450 inhibition assay (P450-Glo) CYP2C19; assay type: in vitro ADME; conditions: compounds 10 μM; miltefosine 10 μM or 1 μM
Sequence (P33261 whole entry): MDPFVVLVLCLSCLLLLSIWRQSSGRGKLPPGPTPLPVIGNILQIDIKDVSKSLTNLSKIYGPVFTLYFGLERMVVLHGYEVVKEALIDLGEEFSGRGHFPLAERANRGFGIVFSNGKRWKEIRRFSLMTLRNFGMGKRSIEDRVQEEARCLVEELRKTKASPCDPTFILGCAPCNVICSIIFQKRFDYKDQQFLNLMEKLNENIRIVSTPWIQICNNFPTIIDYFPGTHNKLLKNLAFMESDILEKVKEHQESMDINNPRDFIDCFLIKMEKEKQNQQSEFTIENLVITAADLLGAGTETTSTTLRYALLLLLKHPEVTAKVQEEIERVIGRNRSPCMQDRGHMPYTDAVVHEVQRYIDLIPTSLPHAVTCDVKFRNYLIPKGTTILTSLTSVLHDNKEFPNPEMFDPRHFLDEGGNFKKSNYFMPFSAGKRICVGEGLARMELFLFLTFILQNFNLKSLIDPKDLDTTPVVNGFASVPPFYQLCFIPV

{"Compound": "C[N+](C)(C)CCCOP(=O)([O-])OCCCCCCCCCCCn1cc(CC2CCCCC2)nn1 [Compound 33]", "% inhibition ± SD at 10 μΜ CYP2C19 [%]": 4.22}
{"Compound": "CCCCCCCCCCCc1nnc(CCCCCCCCCCOP(=O)([O-])OCC[N+](C)(C)C)o1 [Compound 66]", "% inhibition ± SD at 10 μΜ CYP2C19 [%]": 23.97}
{"Compound": "CCCCCCCCCCc1cc(CCCCCCCCCCOP(=O)([O-])OCC[N+](C)(C)C)no1 [Compound 41]", "% inhibition ± SD at 10 μΜ CYP2C19 [%]": 5.65}
{"Compound": "CCCCCCCCc1noc(CCCCCCCCCCOP(=O)([O-])OCC[N+](C)(C)C)n1 [Compound 54]", "% inhibition ± SD at 10 μΜ CYP2C19 [%]": 10.43}

---

molecular target: CYP3A4 (Homo sapiens, UniProt P08684); construct: purchased Corning Inc; host or cells: baculovirus-infected insect cells; assay: Cytochrome P450 inhibition assay (P450-Glo) CYP3A4; type: in vitro ADME; details: compounds 10 μM; miltefosine 10 μM or 1 μM
Sequence (P08684 2-503 limits assumed): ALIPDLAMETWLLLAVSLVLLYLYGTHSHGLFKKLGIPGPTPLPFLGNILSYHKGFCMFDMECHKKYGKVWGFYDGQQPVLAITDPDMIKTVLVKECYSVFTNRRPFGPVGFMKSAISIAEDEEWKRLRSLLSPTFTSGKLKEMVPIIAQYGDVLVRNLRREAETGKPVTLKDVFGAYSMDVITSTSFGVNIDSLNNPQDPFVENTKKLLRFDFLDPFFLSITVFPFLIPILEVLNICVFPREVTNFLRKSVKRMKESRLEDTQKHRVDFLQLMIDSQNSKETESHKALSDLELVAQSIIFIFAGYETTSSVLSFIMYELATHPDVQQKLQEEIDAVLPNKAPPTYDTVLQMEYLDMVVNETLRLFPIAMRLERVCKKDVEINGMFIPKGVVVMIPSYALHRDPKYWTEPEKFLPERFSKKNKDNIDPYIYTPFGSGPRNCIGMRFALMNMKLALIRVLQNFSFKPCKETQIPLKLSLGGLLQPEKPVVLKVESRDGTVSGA
Quick reference: % inhibition ± SD at 10 μΜ CYP3A4 of the listed items.

{"Compound": "C[N+](C)(C)CCOP(=O)([O-])OCCCCCCCCCCCn1cc(CCCCCCCCC(=O)O)nn1 [Compound 34]", "% inhibition ± SD at 10 μΜ CYP3A4": "19.27%"}
{"Compound": "C[N+](C)(C)CCCOP(=O)([O-])OCCCCCCCCCCCn1cc(CC2CCCCC2)nn1 [Compound 33]", "% inhibition ± SD at 10 μΜ CYP3A4": "7.61 ± 9.09%"}
{"Compound": "CCCCCCCCCCCCCCCCOP(=O)([O-])OCC[N+](C)(C)C [Miltefosine, hexadecylphosphocholine, reference compound]", "% inhibition ± SD at 10 μΜ CYP3A4": "8.39%"}
{"Compound": "CCCCCCCCc1noc(CCCCCCCCCCOP(=O)([O-])OCC[N+](C)(C)C)n1 [Compound 54]", "% inhibition ± SD at 10 μΜ CYP3A4": "13.88%"}

---

test: Cytotoxicity against THP-1 macrophages (MTT); assay type: cell-based; conditions: human, PMA-differentiated THP-1 macrophages, read-out: Toxicity CC50 ± SD Or CC50 Interval Estimation
Property label: CC50 at 72 h

{"Substance smiles": "C[N+](C)(C)CCOP(=O)([O-])OCCCCCn1cc(CCCCCCCCNC(=O)OCc2ccccc2)nn1", "Property label": "CC50 at 72 h", "Result": "> 100 µM"}
{"Substance smiles": "CCCCCCCCCCCc1nnc(CCCCCCCCCCOP(=O)([O-])OCC[N+](C)(C)C)o1", "Property label": "CC50 at 72 h", "Result": "25 to 50 µM"}
{"Substance smiles": "C[N+](C)(C)CCOP(=O)([O-])OCCCCCCCCCCCn1cc(CCCCCCCCNC(=O)OCc2ccccc2)nn1", "Property label": "CC50 at 72 h", "Result": "> 100 µM"}
{"Substance smiles": "C[N+](C)(C)CCOP(=O)([O-])OCCCCCCCCCCCn1cc(CCCCCCCCC(=O)O)nn1", "Property label": "CC50 at 72 h", "Result": "50 to 100 µM"}
